# tested.on: rPAPD5 (Homo sapiens)
# Construct: made in house
# Sequence (Q8NDF8 68-698 isoform Q8NDF8-5 limits assumed): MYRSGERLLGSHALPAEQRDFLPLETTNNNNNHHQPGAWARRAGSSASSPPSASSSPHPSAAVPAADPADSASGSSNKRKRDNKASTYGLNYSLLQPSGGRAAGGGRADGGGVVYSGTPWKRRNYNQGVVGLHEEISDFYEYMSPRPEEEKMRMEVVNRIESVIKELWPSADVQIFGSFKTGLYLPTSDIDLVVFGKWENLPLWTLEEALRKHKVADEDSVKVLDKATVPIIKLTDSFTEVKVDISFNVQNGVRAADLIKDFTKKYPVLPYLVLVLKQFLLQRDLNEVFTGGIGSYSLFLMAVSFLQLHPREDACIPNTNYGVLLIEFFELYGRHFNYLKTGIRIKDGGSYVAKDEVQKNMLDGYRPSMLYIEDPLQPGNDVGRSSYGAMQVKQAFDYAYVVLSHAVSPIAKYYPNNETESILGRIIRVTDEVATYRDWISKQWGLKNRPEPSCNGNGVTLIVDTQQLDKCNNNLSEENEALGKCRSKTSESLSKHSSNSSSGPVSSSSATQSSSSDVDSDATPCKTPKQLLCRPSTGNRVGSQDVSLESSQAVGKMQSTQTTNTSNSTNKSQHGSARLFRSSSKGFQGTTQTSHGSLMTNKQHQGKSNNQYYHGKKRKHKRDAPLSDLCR
# measurement.protocol: differential scanning fluorimetry (DSF) binding and stabilization of rPAPD5
# run.parameters: 10 μM test compound (Table 2a); read-out: ΔTm at 10 μM
Catalogue of ΔTm at 10 µM readings, one per entry.
recorded.metric: ΔTm at 10 µM

- molecule: "O=C(O)c1cc(Cl)ccc1Nc1c(-c2cn[nH]c2)cnc2ccc(Cl)cc12 [Compound 354A]"
  recorded.metric: "ΔTm at 10 µM"
  experimental.result: "> 5 °C"
- molecule: "O=C(O)c1cc(Cl)ccc1Nc1c(-c2cnco2)cnc2ccc(Cl)cc12 [Compound 353A]"
  recorded.metric: "ΔTm at 10 µM"
  experimental.result: "> 5 °C"
- molecule: "O=C(O)c1cc(Cl)ccc1Nc1c(C2CCC(=NO)CC2)cnc2ccc(Cl)cc12 (stereo not drawn) [Compound 396A]"
  recorded.metric: "ΔTm at 10 µM"
  experimental.result: "> 5 °C"
- molecule: "O=C(O)c1cc(Cl)ccc1Nc1c(CN2CCOCC2)cnc2ccc(Cl)cc12 [Compound 371A]"
  recorded.metric: "ΔTm at 10 µM"
  experimental.result: "> 5 °C"
- molecule: "O=C1CC=C(c2cnc3ccc(Cl)cc3c2Nc2ccc(Cl)cc2C(=O)O)CC1 [Compound 403A]"
  recorded.metric: "ΔTm at 10 µM"
  experimental.result: "> 5 °C"
- molecule: "O=C(O)c1cc(Cl)ccc1Nc1c(S(=O)(=O)N2CCC(F)(F)CC2)cnc2ccc(Cl)cc12 [Compound 345A]"
  recorded.metric: "ΔTm at 10 µM"
  experimental.result: "> 5 °C"
- molecule: "O=C(O)c1cc(Cl)ccc1Nc1c(S(=O)(=O)N2CCS(=O)(=O)CC2)cnc2ccc(Cl)cc12 [Compound 429A]"
  recorded.metric: "ΔTm at 10 µM"
  experimental.result: "> 5 °C"
- molecule: "O=C(O)c1cc(Cl)c(F)cc1Nc1c(S(=O)(=O)N2CCSCC2)cnc2ccc(Cl)cc12 [Compound 425A]"
  recorded.metric: "ΔTm at 10 µM"
  experimental.result: "> 5 °C"
- molecule: "O=C(O)c1cc(Cl)cc(F)c1Nc1c(S(=O)(=O)N2CCSCC2)cnc2ccc(Cl)cc12 [Compound 427A]"
  recorded.metric: "ΔTm at 10 µM"
  experimental.result: "> 5 °C"
- molecule: "O=C(O)c1cc(Cl)ccc1Nc1c(N2CCC(O)CC2)cnc2ccc(Cl)cc12 [Compound 399A]"
  recorded.metric: "ΔTm at 10 µM"
  experimental.result: "> 5 °C"
- molecule: "O=C(O)c1cc(Cl)ccc1Nc1c(N2CCC(F)(F)CC2)cnc2ccc(Cl)cc12 [Compound 340A]"
  recorded.metric: "ΔTm at 10 µM"
  experimental.result: "> 5 °C"
- molecule: "O=C1CCC(c2cnc3ccc(Cl)cc3c2Nc2ccc(Cl)cc2C(=O)O)CC1 [Compound 404A]"
  recorded.metric: "ΔTm at 10 µM"
  experimental.result: "> 5 °C"
- molecule: "O=C(O)c1cc(Cl)ccc1Nc1c(S(=O)(=O)N2CCSCC2)cnc2cc(F)c(Cl)cc12 [Compound 415A]"
  recorded.metric: "ΔTm at 10 µM"
  experimental.result: "> 5 °C"
- molecule: "Cc1cc2ncc(S(=O)(=O)N3CCSCC3)c(Nc3ccc(Cl)cc3C(=O)O)c2cc1Cl [Compound 411A]"
  recorded.metric: "ΔTm at 10 µM"
  experimental.result: "> 5 °C"
- molecule: "O=C(O)c1cc(Cl)ccc1Nc1c(C2CCNC2)cnc2ccc(Cl)cc12 (stereo not drawn) [Compound 357A]"
  recorded.metric: "ΔTm at 10 µM"
  experimental.result: "> 5 °C"
- molecule: "O=C(O)c1cc(Cl)ccc1Nc1c(N2CCNCC2)cnc2ccc(Cl)cc12 [Compound 362A]"
  recorded.metric: "ΔTm at 10 µM"
  experimental.result: "> 5 °C"
- molecule: "O=C(O)c1cc(Cl)ccc1Nc1c(S(=O)(=O)N2CCSCC2)cnc2cc(Cl)c(Cl)cc12 [Compound 414A]"
  recorded.metric: "ΔTm at 10 µM"
  experimental.result: "> 5 °C"
- molecule: "O=C(O)c1cc(Cl)ccc1Nc1c(N2CCC(=NO)CC2)cnc2ccc(Cl)cc12 [Compound 376A]"
  recorded.metric: "ΔTm at 10 µM"
  experimental.result: "> 5 °C"
- molecule: "CN1CC=C(c2cnc3ccc(Cl)cc3c2Nc2ccc(Cl)cc2C(=O)O)CC1 [Compound 367A]"
  recorded.metric: "ΔTm at 10 µM"
  experimental.result: "> 5 °C"
- molecule: "O=C(O)c1cc(Cl)ccc1Nc1c(S(=O)(=O)N2CCSCC2)cnc2c(C(F)(F)F)cc(Cl)cc12 [Compound 419A]"
  recorded.metric: "ΔTm at 10 µM"
  experimental.result: "> 5 °C"
- molecule: "CN1CCN(c2cnc3ccc(Cl)cc3c2Nc2ccc(Cl)cc2C(=O)O)CC1 [Compound 361A]"
  recorded.metric: "ΔTm at 10 µM"
  experimental.result: "> 5 °C"
- molecule: "O=C(O)c1cc(Cl)ccc1Nc1c(C2CCSCC2)cnc2ccc(Cl)cc12 [Compound 341A]"
  recorded.metric: "ΔTm at 10 µM"
  experimental.result: "> 5 °C"
- molecule: "O=C(O)c1cc(Cl)ccc1Nc1c(-c2nnn[nH]2)cnc2ccc(Cl)cc12 [Compound 359A]"
  recorded.metric: "ΔTm at 10 µM"
  experimental.result: "> 5 °C"
- molecule: "O=C(O)c1cc(Cl)ccc1Nc1c(C2=CCNCC2)cnc2ccc(Cl)cc12 [Compound 368A]"
  recorded.metric: "ΔTm at 10 µM"
  experimental.result: "> 5 °C"
- molecule: "O=C(O)c1cc(Cl)ccc1Nc1c(N2CCC(Cl)CC2)cnc2ccc(Cl)cc12 [Compound 393A]"
  recorded.metric: "ΔTm at 10 µM"
  experimental.result: "> 5 °C"
- molecule: "O=C(O)c1cc(Cl)ccc1Nc1c(CN2CCSCC2)cnc2ccc(Cl)cc12 [Compound 428A]"
  recorded.metric: "ΔTm at 10 µM"
  experimental.result: "> 5 °C"
- molecule: "O=C(O)c1cc(Cl)ccc1Nc1c(C2CCC(F)(F)CC2)cnc2ccc(Cl)cc12 [Compound 343A]"
  recorded.metric: "ΔTm at 10 µM"
  experimental.result: "> 5 °C"
- molecule: "Cc1cc(Nc2c(S(=O)(=O)N3CCSCC3)cnc3ccc(Cl)cc23)c(C(=O)O)cc1Cl [Compound 426A]"
  recorded.metric: "ΔTm at 10 µM"
  experimental.result: "> 5 °C"
- molecule: "O=C(O)c1cc(Cl)ccc1Nc1c(C2=CCSCC2)cnc2ccc(Cl)cc12 [Compound 342A]"
  recorded.metric: "ΔTm at 10 µM"
  experimental.result: "> 5 °C"
- molecule: "COc1cc(Cl)cc2c(Nc3ccc(Cl)cc3C(=O)O)c(S(=O)(=O)N3CCSCC3)cnc12 [Compound 418A]"
  recorded.metric: "ΔTm at 10 µM"
  experimental.result: "> 5 °C"
- molecule: "O=C(O)c1cc(Cl)ccc1Nc1c(-c2ccncc2)cnc2ccc(Cl)cc12 [Compound 391A]"
  recorded.metric: "ΔTm at 10 µM"
  experimental.result: "> 5 °C"
- molecule: "O=C(O)c1cc(Cl)ccc1Nc1c(C2=CCNC2)cnc2ccc(Cl)cc12 [Compound 402A]"
  recorded.metric: "ΔTm at 10 µM"
  experimental.result: "> 5 °C"
- molecule: "O=C1CCN(c2cnc3ccc(Cl)cc3c2Nc2ccc(Cl)cc2C(=O)O)CC1 [Compound 395A]"
  recorded.metric: "ΔTm at 10 µM"
  experimental.result: "> 5 °C"
